Provenance of the data: paper PMC9848286

Biological target: COX-2 (Homo sapiens)
Sequence (P35354 18-604): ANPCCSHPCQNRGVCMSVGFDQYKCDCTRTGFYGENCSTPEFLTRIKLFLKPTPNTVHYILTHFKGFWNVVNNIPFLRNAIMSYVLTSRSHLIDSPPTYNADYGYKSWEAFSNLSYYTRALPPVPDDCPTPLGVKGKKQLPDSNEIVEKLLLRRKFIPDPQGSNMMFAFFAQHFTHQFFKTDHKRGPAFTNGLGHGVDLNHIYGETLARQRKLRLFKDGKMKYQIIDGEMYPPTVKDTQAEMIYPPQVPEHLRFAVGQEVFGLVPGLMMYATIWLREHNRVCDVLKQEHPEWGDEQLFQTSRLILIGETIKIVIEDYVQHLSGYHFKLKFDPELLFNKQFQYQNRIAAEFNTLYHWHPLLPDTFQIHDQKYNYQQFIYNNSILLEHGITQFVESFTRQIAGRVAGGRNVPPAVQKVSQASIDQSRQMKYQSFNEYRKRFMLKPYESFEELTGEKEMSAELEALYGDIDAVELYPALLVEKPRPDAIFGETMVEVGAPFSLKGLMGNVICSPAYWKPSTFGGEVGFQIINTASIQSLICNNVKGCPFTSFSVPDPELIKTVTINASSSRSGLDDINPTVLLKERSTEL
Experiment: In vitro COX-2 inhibition, colorimetric screening assay kit
Details: supplementary dose-response curve
quantity.measured: LogIC50 (best-fit value), COX-2 inhibition

Example compounds with recorded LogIC50 (best-fit value), COX-2 inhibition:
- molecule: "Cc1c(NC(=O)CSc2nnc(-c3ccc(Cl)cc3)o2)c(=O)n(-c2ccccc2)n1C"
  readout.value: "1.730 Log (nM)"
- molecule: "COc1ccc(-c2nc(SCC(=O)Nc3c(C)n(C)n(-c4ccccc4)c3=O)[nH]c(=O)c2C#N)cc1"
  readout.value: "1.837 Log (nM)"
- molecule: "Cc1ccc(-c2nc(SCC(=O)Nc3c(C)n(C)n(-c4ccccc4)c3=O)[nH]c(=O)c2C#N)cc1"
  readout.value: "1.948 Log (nM)"

-- ask Lookup: LogIC50 (best-fit value), COX-2 inhibition / COX-2 (Homo sapiens) / Cc1c(NC(=O)CSc2nc(-c3ccc(Br)cc3)c(C#N)c(=O)[nH]2)c(=O)n(-c2ccccc2)n1C
-- reply 2.113 Log (nM)

---

Biological target: COX-2 (Homo sapiens)
Sequence (P35354 18-604): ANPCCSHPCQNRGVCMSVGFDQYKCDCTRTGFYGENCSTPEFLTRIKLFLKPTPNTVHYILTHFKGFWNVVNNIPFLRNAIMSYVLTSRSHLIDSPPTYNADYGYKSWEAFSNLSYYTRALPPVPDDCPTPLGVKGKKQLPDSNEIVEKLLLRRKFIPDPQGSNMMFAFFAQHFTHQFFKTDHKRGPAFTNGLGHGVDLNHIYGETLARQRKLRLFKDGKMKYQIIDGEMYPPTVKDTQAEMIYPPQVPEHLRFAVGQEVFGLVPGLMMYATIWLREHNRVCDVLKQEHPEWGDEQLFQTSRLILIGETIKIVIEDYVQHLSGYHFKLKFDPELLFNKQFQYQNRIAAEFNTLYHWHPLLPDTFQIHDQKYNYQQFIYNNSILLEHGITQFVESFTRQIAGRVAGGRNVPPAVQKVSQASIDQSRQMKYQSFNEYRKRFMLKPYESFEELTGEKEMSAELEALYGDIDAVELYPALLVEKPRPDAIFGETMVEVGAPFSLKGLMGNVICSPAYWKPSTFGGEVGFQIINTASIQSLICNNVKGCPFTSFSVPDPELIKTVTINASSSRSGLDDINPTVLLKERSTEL
# pIC50 listing for each entry below
pIC50 here is simply -log10 of the concentration when that concentration is written in mol/L.

- molecule: "Cc1c(NC(=O)CSc2nnc(NC(=O)Nc3ccc(Cl)cc3)s2)c(=O)n(-c2ccccc2)n1C"
  readout.value: 6.77
- molecule: "Cc1c(NC(=O)CSc2nnc(-c3ccc(Br)cc3)o2)c(=O)n(-c2ccccc2)n1C"
  readout.value: 7.16
- molecule: "Cc1ccc(-c2nc(SCC(=O)Nc3c(C)n(C)n(-c4ccccc4)c3=O)[nH]c(=O)c2C#N)cc1"
  readout.value: 7.05

For the next question, use this compound.
-- ask Fill blank: measured pIC50 of the compound Cc1c(NC(=O)CSc2nc(-c3ccc(Br)cc3)c(C#N)c(=O)[nH]2)c(=O)n(-c2ccccc2)n1C is ____.
-- reply 6.89

---

molecular target: COX-1 (Ovis aries, UniProt P05979); assay: In vitro COX-1 inhibition, colorimetric screening assay kit; conditions: supplementary dose-response curve
quantity.measured: LogIC50 (best-fit value), COX-1 inhibition

- molecule: "Cc1ccc(-c2nnc(SCC(=O)Nc3c(C)n(C)n(-c4ccccc4)c3=O)o2)cc1"
  tested.system: "COX-1 (Ovis aries, UniProt P05979)"
  readout.value: "2.252 Log (nM)"
- molecule: "Cc1c(NC(=O)CSc2nnc(NC(=O)Nc3ccc(Cl)cc3)s2)c(=O)n(-c2ccccc2)n1C"
  tested.system: "COX-1 (Ovis aries, UniProt P05979)"
  readout.value: "2.025 Log (nM)"
- molecule: "Cc1c(NC(=O)CSc2nc(-c3ccc(Br)cc3)c(C#N)c(=O)[nH]2)c(=O)n(-c2ccccc2)n1C"
  tested.system: "COX-1 (Ovis aries, UniProt P05979)"
  readout.value: "2.214 Log (nM)"

-- ask Need LogIC50 (best-fit value), COX-1 inhibition of Cc1ccc(-c2nc(SCC(=O)Nc3c(C)n(C)n(-c4ccccc4)c3=O)[nH]c(=O)c2C#N)cc1 , thanks.
-- reply 2.142 Log (nM)

---

# (SI) in vitro COX-2 selectivity index annotations
target: UniProt:P35354; assay: In vitro COX-2 inhibition, colorimetric screening assay kit; conditions: COX-1 IC50/COX-2 IC50
When you answer, write just the number.

- molecule: "Cc1c(NC(=O)CSc2nnc(-c3ccc(Br)cc3)o2)c(=O)n(-c2ccccc2)n1C"
  readout.value: 1.86

-- ask Field: (SI) in vitro COX-2 selectivity index (UniProt:P35354). Entry: Cc1c(NC(=O)CSc2nc(-c3ccc(Cl)cc3)c(C#N)c(=O)[nH]2)c(=O)n(-c2ccccc2)n1C
-- reply 1.74

-- ask And what about the compound Cc1c(NC(=O)CSc2nnc(NC(=O)Nc3ccc(Cl)cc3)s2)c(=O)n(-c2ccccc2)n1C ?
-- reply 0.63

-- ask Try this compound too: Cc1c(NC(=O)CSc2nnc(NC(=O)Nc3ccccc3)s2)c(=O)n(-c2ccccc2)n1C
-- reply 0.85

-- ask Likewise for COc1ccc(-c2nc(SCC(=O)Nc3c(C)n(C)n(-c4ccccc4)c3=O)[nH]c(=O)c2C#N)cc1 ?
-- reply 1.33

-- ask Also Cc1ccc(-c2nnc(SCC(=O)Nc3c(C)n(C)n(-c4ccccc4)c3=O)o2)cc1 ?
-- reply 2.05

-- ask Same question, Cc1c(NC(=O)CSc2nc(-c3ccc(Br)cc3)c(C#N)c(=O)[nH]2)c(=O)n(-c2ccccc2)n1C this time
-- reply 1.26

-- ask Also COc1ccc(NC(=O)Nc2nnc(SCC(=O)Nc3c(C)n(C)n(-c4ccccc4)c3=O)s2)cc1 ?
-- reply 3.28

---

quantity.measured: melting point

- molecule: "Cc1c(NC(=O)CSc2nc(-c3ccc(Br)cc3)c(C#N)c(=O)[nH]2)c(=O)n(-c2ccccc2)n1C [8c]"
  melting point: "243 to 245 °C"
- molecule: "COc1ccc(NC(=O)Nc2nnc(SCC(=O)Nc3c(C)n(C)n(-c4ccccc4)c3=O)s2)cc1 [6c]"
  melting point: "250 to 252 °C"
- molecule: "Cc1ccc(-c2nc(SCC(=O)Nc3c(C)n(C)n(-c4ccccc4)c3=O)[nH]c(=O)c2C#N)cc1 [8a]"
  melting point: "> 300 °C"

-- ask Give its melting point value. Item: Cc1c(NC(=O)CSc2nnc(-c3ccc(Cl)cc3)o2)c(=O)n(-c2ccccc2)n1C [4b]
-- reply 190 to 192 °C

-- ask Okay, and Cc1c(NC(=O)CSc2nnc(NC(=O)Nc3ccc(Cl)cc3)s2)c(=O)n(-c2ccccc2)n1C [6d] ?
-- reply 248 to 250 °C

-- ask Ok, now COc1ccc(-c2nc(SCC(=O)Nc3c(C)n(C)n(-c4ccccc4)c3=O)[nH]c(=O)c2C#N)cc1 [8d]
-- reply 166 to 168 °C

-- ask // repeat for Cc1ccc(-c2nnc(SCC(=O)Nc3c(C)n(C)n(-c4ccccc4)c3=O)o2)cc1 [4a] and report
-- reply 234 to 236 °C

-- ask Do the same for Cc1c(NC(=O)CSc2nnc(NC(=O)Nc3ccccc3)s2)c(=O)n(-c2ccccc2)n1C [6a] please
-- reply 254 to 256 °C

---

Overview of reported HillSlope (best-fit value), COX-1 inhibition across a group of compounds:
Target: COX-1 (Ovis aries)
Sequence (P05979 25-600): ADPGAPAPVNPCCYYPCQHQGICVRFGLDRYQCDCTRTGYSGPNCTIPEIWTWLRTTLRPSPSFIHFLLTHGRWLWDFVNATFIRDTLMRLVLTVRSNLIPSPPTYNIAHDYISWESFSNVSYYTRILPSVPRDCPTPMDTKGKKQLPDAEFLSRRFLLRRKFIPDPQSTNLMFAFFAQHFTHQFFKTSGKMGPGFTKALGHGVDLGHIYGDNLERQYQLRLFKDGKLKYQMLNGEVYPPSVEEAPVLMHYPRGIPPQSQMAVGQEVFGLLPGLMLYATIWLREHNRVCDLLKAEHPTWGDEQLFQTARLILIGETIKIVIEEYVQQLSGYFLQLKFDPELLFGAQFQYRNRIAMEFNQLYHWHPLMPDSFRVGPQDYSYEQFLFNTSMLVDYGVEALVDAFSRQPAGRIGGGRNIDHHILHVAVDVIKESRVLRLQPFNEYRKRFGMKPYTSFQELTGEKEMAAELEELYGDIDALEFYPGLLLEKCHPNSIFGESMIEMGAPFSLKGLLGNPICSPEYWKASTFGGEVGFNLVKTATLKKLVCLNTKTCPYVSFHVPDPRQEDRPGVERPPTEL
Assay: In vitro COX-1 inhibition, colorimetric screening assay kit
Conditions: supplementary dose-response curve
When you answer, write just the number.

Some solved entries appear below for comparison.
- compound: "Cc1c(NC(=O)CSc2nnc(NC(=O)Nc3ccc(Cl)cc3)s2)c(=O)n(-c2ccccc2)n1C [6d]"
  readout.value: -0.3655
- compound: "Cc1c(NC(=O)CSc2nc(-c3ccc(Cl)cc3)c(C#N)c(=O)[nH]2)c(=O)n(-c2ccccc2)n1C [8b]"
  readout.value: -0.3071
- compound: "COc1ccc(NC(=O)Nc2nnc(SCC(=O)Nc3c(C)n(C)n(-c4ccccc4)c3=O)s2)cc1 [6c]"
  readout.value: -0.2958

-- ask // lookup HillSlope (best-fit value), COX-1 inhibition | system=COX-1 (Ovis aries) | key= Cc1ccc(-c2nc(SCC(=O)Nc3c(C)n(C)n(-c4ccccc4)c3=O)[nH]c(=O)c2C#N)cc1 [8a]
-- reply -0.3685
